B1: H2-Kb / Ed28 (parent complex)
chain 1: AQSVTQPDARVTVSEGASLQLRCKYSYFGTPYLFWYVQYPRQGLQLLLKYYPGDPVVQGVNGFEAEFSKSNSSFHLRKASVHWSDWAVYFCAVSPGSGGKLTLGAGTRLQVNL
chain 2: DSGVVQSPRHIIKEKGGRSVLTCIPISGHSNVVWYQQTLGKELKFLIQHYEKVERDKGFLPSRFSVQQFDDYHSEMNMSALELEDSAMYFCASSPRASDYTFGSGTRLLVI
chain 3: not shown
chain 4: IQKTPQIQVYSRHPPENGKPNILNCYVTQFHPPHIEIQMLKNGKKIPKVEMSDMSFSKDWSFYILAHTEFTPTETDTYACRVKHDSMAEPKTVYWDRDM
chain 5: SIINFEKL

- Variants of: B1
- PROTOCOL SUMMARY: % of reporter cells activated (NFAT-GFP), raw; further: test concentration or dose not given here
READOUT NAME: ratio to parent
Just the number, please, no unit after it.

The examples below pair each entry with its known result.
INSERT INTO assay_data (alteration, value_observed) VALUES
  ('chain 5 K7W', 0.407),
  ('chain 5 K7F', 0.0786),
  ('chain 5 L8Y', 0.902),
  ('chain 5 E6Q', 0.315),
  ('chain 5 K7C', 0.0363),
  ('chain 5 I3D', 0.727);

For chain 5 S1C the variant record lists ratio to parent as 0.59

ratio to parent for chain 5 L8D is 0.475

Form: variant = chain 5 I3R ; ratio to parent = 0.134

The variant listed as chain 5 E6H has a reported ratio to parent of 0.116

Value of ratio to parent reported for the variant chain 5 F5D is 0.687

Looking up chain 5 E6D , I found its ratio to parent recorded as 0.533

For chain 5 E6R the variant record lists ratio to parent as 0.0718

Form: variant = chain 5 F5T ; ratio to parent = 1.17

So, chain 5 F5P ? Its ratio to parent was 0.74
